Test: AUC (0 to infinity) in Sprague-Dawley rat kidney at 2 x 50 mg/kg, iv
Assay type: ADME, organism-based
Design: time infinity, dose 50 mg/kg, route intravenous
experimental-endpoint: AUC(0-inf) (ng·h/mL)

{"columns": ["chemical-smiles", "units", "measured-number"],
 "data": [
  ["CCc1cc(O)c(Oc2ccc(C(N)=O)cc2F)cc1F", "ng·h/mL", 20300]
]}

----------
Assay: Terminal elimination half life in Sprague-Dawley rat lung at 2 x 50 mg/kg, iv
Format: ADME, organism-based
Design: dose 50 mg/kg, route intravenous
Conditions: read-out: beta t1/2 (converted)

{"columns": ["chemical-smiles", "half-life"],
 "data": [
  ["CCc1cc(O)c(Oc2ccc(C(N)=O)cc2F)cc1F", "5.9 h"]
]}

----------
Assay: Thermodynamic aqueous solubility of the compound at pH 7.4
Type: physicochemical
Conditions: buffer, read-out: Therm_solubility
experimental-endpoint: solubility thermodynamic (µg/mL)

{"columns": ["chemical-smiles", "experimental-endpoint", "units", "measured-number"],
 "data": [
  ["CCc1cc(O)c(Oc2ccc(C(N)=O)cc2F)cc1F", "solubility thermodynamic", "µg/mL", 20]
]}

----------
Experiment: Thermodynamic aqueous solubility of the compound in 1 to 5% of glucose
Format: physicochemical
Conditions: 1 to 5% glucose in water; read-out: Therm_solubility
experimental-endpoint: solubility thermodynamic (mg/mL)

{"columns": ["chemical-smiles", "experimental-endpoint", "units", "measured-number"],
 "data": [
  ["CCc1cc(O)c(Oc2ccc(C(N)=O)cc2F)cc1F", "solubility thermodynamic", "mg/mL", 11.3]
]}

----------
Assay: Terminal elimination half life in Sprague-Dawley rat plasma at 2 x 50 mg/kg, iv
Assay type: ADME, organism-based
Parameters: dose 50 mg/kg, route intravenous
Details: read-out: beta t1/2 (converted)

{"columns": ["chemical-smiles", "half-life"],
 "data": [
  ["CCc1cc(O)c(Oc2ccc(C(N)=O)cc2F)cc1F", "294 min"]
]}

----------
Molecular target: Enoyl-[acyl-carrier-protein] reductase [NADPH] FabI (Staphylococcus aureus, UniProt Q6GI75)
Sequence (Q6GI75 whole entry): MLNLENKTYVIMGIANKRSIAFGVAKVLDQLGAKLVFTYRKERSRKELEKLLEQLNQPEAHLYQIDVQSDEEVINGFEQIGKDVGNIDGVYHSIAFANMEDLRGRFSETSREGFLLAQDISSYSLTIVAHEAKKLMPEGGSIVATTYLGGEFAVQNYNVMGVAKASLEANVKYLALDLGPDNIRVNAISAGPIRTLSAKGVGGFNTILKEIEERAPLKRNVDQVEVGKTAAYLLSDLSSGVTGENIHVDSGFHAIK
Test: Inhibition of Staphylococcus aureus recombinant FabI using trans-2-octenoyl N-acetylcysteamine thioester as substrate preincubated for 60 mins
pIC50: −log10 of the molar value.
experimental-endpoint: pIC50

{"columns": ["chemical-smiles", "relation-sign", "measured-number"],
 "data": [
  ["CCc1ccc(Oc2ccc(C(=O)CCCO)cc2)c(O)c1", "=", 7.32],
  ["CCc1cc(O)c(Oc2ccc[nH]c2=O)cc1F", "<", 4.00],
  ["CCc1cc(O)c(Oc2ccc(C(N)=O)cc2F)cc1F", "=", 7.92],
  ["CCc1cc(O)c(Oc2cccnc2F)cc1F", "=", 7.89],
  ["CCc1cc(OC)c(Oc2ccc(C(N)=O)cc2F)cc1F", "=", 4.68],
  ["CCc1cc(O)c(Oc2cccnc2N)cc1F", "=", 7.25],
  ["CCc1cc(O)c(Oc2ccccc2F)cc1F", "=", 8.10],
  ["CCc1cc(O)c(Oc2ccc(C(=O)NC)cc2F)cc1F", "=", 7.09],
  ["CCc1cc(O)c(Oc2ccc(C#N)cc2F)cc1F", "=", 7.51],
  ["CCc1ccc(Oc2ccc(C(=O)N3CCNC(=O)C3)cc2F)c(O)c1", "=", 7.55],
  ["CCc1cc(O)c(Oc2ccc(C(=O)O)cc2F)cc1F", "=", 6.74],
  ["CCc1cc(O)c(Oc2ccccc2)cc1F", "=", 7.43]
]}
